- Tested on: Coagulation factor X (Homo sapiens)
- Sequence (P00742 41-179 limits assumed): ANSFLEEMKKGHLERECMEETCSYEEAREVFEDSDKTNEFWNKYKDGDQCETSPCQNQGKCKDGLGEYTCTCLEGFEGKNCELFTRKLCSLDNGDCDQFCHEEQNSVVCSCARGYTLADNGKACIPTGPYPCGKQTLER
- Sequence (P00742 235-488 limits assumed): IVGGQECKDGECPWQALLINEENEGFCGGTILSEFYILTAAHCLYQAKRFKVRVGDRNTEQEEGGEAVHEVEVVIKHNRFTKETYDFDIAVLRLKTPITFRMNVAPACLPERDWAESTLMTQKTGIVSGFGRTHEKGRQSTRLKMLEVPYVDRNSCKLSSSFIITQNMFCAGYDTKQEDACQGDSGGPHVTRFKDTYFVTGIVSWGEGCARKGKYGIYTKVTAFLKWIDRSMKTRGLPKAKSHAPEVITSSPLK
Quantity name: pKi
The quantity pKi is defined as the negative base-10 logarithm of the molar concentration.

Some entries whose results are on file:
{"Molecular string": "Cc1cc(C(=O)Nc2ccc(-c3ccccc3S(N)(=O)=O)cc2Cl)n(-c2cccc(C(=N)N)c2)n1", "pKi": 11.05}
{"Molecular string": "Cc1cc(C(=O)Nc2ncc(-c3ccccc3S(N)(=O)=O)cn2)n(-c2cccc(C(=N)N)c2)n1", "pKi": 10.39}
{"Molecular string": "Cc1cc(C(=O)Nc2ccc(-c3ccccc3S(C)(=O)=O)cc2F)n(-c2cccc(C(=N)N)c2)n1", "pKi": 10.70}

As a next step, examine the compound that follows.
Check Coagulation factor X (Homo sapiens) data and give pKi for NCc1cccc(-n2nc(C(F)(F)F)cc2C(=O)Nc2ccc(-c3ccccc3S(N)(=O)=O)cc2)c1 . 9.04

# credit: ChEMBL document CHEMBL1134648
